- System: WPMY1-CANX-COX4
- protocol_text: phenotypically active (imaging signature differs from DMSO and reproducible) at any of 0.3-9 uM (binary (1 = active, 0 = inactive)); higher = active
- test_context: treatment time: 24 h
reported_property: phenotypically active
Answers are plain numbers.

The following compounds have reported results that may help.
compound="CC(C)COCC(CN(Cc1ccccc1)c1ccccc1)N1CCCC1 (centres undefined)" measurement_target=WPMY1-CANX-COX4 measurement=1
compound=O=C1c2c(O)cccc2Cc2cccc(O)c21 measurement_target=WPMY1-CANX-COX4 measurement=0
compound="CC1=CC(=O)CC(C)(C)C1(O)/C=C/C(C)=C\\C(=O)O (mixture of isomers) [(+/-)-2-cis-4-trans-Abscisic acid]" measurement_target=WPMY1-CANX-COX4 measurement=0

Kindly review the next compound as well.
Give recorded phenotypically active with WPMY1-CANX-COX4 for the following compound: O=c1c(O)c(-c2ccc(O)cc2)oc2cc(O)cc(O)c12
1
